Test system: Staphylococcus aureus
Test summary: Antibacterial activity against Staphylococcus aureus ATCC 6538 at 200 ug/ml after 24 hrs by agar well diffusion method
Assay type: functional
Condition label: ATCC 6538, 24 h, read-out: DIZ
Endpoint label: zone of inhibition at 200 µg/mL (mm)
# value in mm; strip the unit string

Examples with answers:
>>> observed("CC1(C)OC(=O)C(=Cc2c[nH]c3ccc(Br)cc23)C(=O)O1")
15
>>> observed("CCn1cc(C=C2C(=O)OC(C)(C)OC2=O)c2cc(OC)ccc21")
11
>>> observed("Cn1cc(C=C2C(=O)OC(C)(C)OC2=O)c2ccccc21")
14
>>> observed("COc1ccc2c(c1)c(C=C1C(=O)OC(C)(C)OC1=O)cn2C")
13

I have this molecule here, CC1(C)OC(=O)C(=Cc2c[nH]c3ccccc23)C(=O)O1 , and I need its recorded zone of inhibition at 200 µg/mL.
16

Entry CN[C@@H]1[C@H](O[C@H]2[C@H](O[C@H]3[C@H](O)[C@@H](O)[C@H](N=C(N)N)[C@@H](O)[C@@H]3N=C(N)N)O[C@@H](C)[C@]2(O)C=O)O[C@@H](CO)[C@H](O)[C@H]1O : reported zone of inhibition at 200 µg/mL = ?
19

Would you kindly share the measured zone of inhibition at 200 µg/mL for Cn1cc(C=C2C(=O)OC(C)(C)OC2=O)c2cc([N+](=O)[O-])ccc21 ?
14

What value of measured zone of inhibition at 200 µg/mL is listed for CCn1cc(C=C2C(=O)OC(C)(C)OC2=O)c2cc(Br)ccc21 ?
11

Endpoint output: zone of inhibition at 200 µg/mL of COc1ccc2[nH]cc(C=C3C(=O)OC(C)(C)OC3=O)c2c1 . Value?
15

These measurements were taken from ChEMBL document CHEMBL2429768.
